Kindly supply the reported Barnyardgrass plant response rating values for the records listed here.
- Tested on: barnyardgrass
- ASSAY EXPLANATION: Test B pre-/postemergence herbicide test
- Format: in vivo, Echinochloa crus-galli
- STUDY CONDITIONS: Postemergence, 125 g ai/ha; scale 0 (no effect) to 100 (complete control)
- Method: […] At the same time, plants selected from these crop and weed species and also blackgrass (Alopecurus myosuroides Huds.), wheat (Triticum aestivum L.) and wild oat (Avena fatua L.) were treated with postemergence applications of test chemicals formulated in the same manner. […] Treated plants and controls were maintained in a greenhouse for 13 to 15 days, after which time all species were compared to controls and visually evaluated. […]

Quote Barnyardgrass plant response rating reported for CCN(C)C(=O)c1cccc(NC(=O)c2nn(C(C)C)nc2C)c1 please.
0

Quote Barnyardgrass plant response rating reported for C=CCNC(=O)c1cccc(NC(=O)c2nn(C(C)(C)C)nc2C)n1 please.
0

Quote Barnyardgrass plant response rating reported for CCn1nc(C(C)(C)C)cc1C(=O)Nc1cccc(C(=O)NCCF)c1 please.
20

Quote Barnyardgrass plant response rating reported for Cc1nn(C(C)(C)C)nc1C(=O)Nc1cccc(C(=O)N2CC=CC2)n1 please.
0

Quote Barnyardgrass plant response rating reported for CCc1nn(C(C)C)nc1C(=O)Nc1cccc(C(=S)N(C)C)c1 please.
0

Quote Barnyardgrass plant response rating reported for CCn1nc(C(C)(C)C)cc1C(=O)Nc1cccc(C(=O)NC2CC2)c1 please.
20

Quote Barnyardgrass plant response rating reported for C=CCNC(=O)c1ccc(F)c(NC(=O)c2cc(C(C)(C)C)nn2CC)c1 please.
30

----------
- Tested on: rice
- ASSAY EXPLANATION: Test B pre-/postemergence herbicide test
- Format: in vivo, Oryza sativa
- STUDY CONDITIONS: 500 g ai/ha; visual rating, 0 = no effect, 100 = complete control; preemergence
Kindly supply the reported Plant response rating, Rice values for the records listed here.
Answer with a bare number; do not write a unit.

Quote Plant response rating, Rice reported for CCn1nc(C(C)(C)C)cc1C(=O)Nc1nc(C(=O)N2CC=CC2)ccc1F please.
60

Quote Plant response rating, Rice reported for CCN(CC)C(=O)c1cccc(NC(=O)c2cc(C(C)(C)C)nn2C)n1 please.
10

Quote Plant response rating, Rice reported for CCNC(=O)c1cc(NC(=O)c2cc(C(C)(C)C)nn2CC)c(F)cc1F please.
50

Quote Plant response rating, Rice reported for CCn1nc(C(C)(C)C)cc1C(=O)Nc1cncc(C(=O)N2CC=CC2)n1 please.
80

Quote Plant response rating, Rice reported for CCNC(=O)c1ccc(F)c(NC(=O)c2cc(C3(C)CC3)nn2CC)c1 please.
70

Quote Plant response rating, Rice reported for C#CCNC(=O)c1cccc(NC(=O)c2sc(C(C)(C)C)nc2CC)c1 please.
70

Quote Plant response rating, Rice reported for CCN(C)C(=O)c1ccc(F)c(NC(=O)c2cc(C(C)(C)C)nn2CC)n1 please.
10

Quote Plant response rating, Rice reported for CCNC(=O)c1ccc(F)c(NC(=O)C2CC(C(C)(C)C)=NN2CC)c1 (racemic) please.
90

----------
- Test system: velvetleaf
- ASSAY EXPLANATION: Test B pre-/postemergence herbicide test
- Format: in vivo, Abutilon theophrasti
- STUDY CONDITIONS: Postemergence, 500 g ai/ha; visual rating after 13 to 15 days, scale 0 (no effect) to 100 (complete control)
ASSAY READOUT: Plant response rating, Velvetleaf
Answer with a bare number; do not write a unit.

Quote Plant response rating, Velvetleaf reported for C=Cn1nc(C(C)(C)C)cc1C(=O)Nc1cccc(C(=O)N(CC)CC)c1 [Compound 34] please.
50

Quote Plant response rating, Velvetleaf reported for CCn1nc(C(C)(C)C)cc1C(=O)Nc1cccc(C(=O)NC(C)C)c1 [Compound 51] please.
70

Quote Plant response rating, Velvetleaf reported for CCCn1nc(C(C)(C)C)cc1C(=O)Nc1cccc(C(C)=NO)c1 [Compound 113] please.
60

Quote Plant response rating, Velvetleaf reported for CCN(CC)C(=O)c1cccc(NC(=O)c2cc(C(C)(C)C)nn2CCF)c1 [Compound 36] please.
40

Quote Plant response rating, Velvetleaf reported for CCOC(=O)c1cc(NC(=O)c2cc(C(C)(C)C)nn2CC)ccc1OCC [Compound 95] please.
60

Quote Plant response rating, Velvetleaf reported for CCn1nc(C(C)(C)C)cc1C(=O)Nc1cccc(C(=O)NCC2CC2)c1 [Compound 62] please.
70

----------
- Tested on: velvetleaf
- ASSAY EXPLANATION: Test B pre-/postemergence herbicide test
- Type: in vivo, Abutilon theophrasti
- STUDY CONDITIONS: 500 g ai/ha; visual rating, 0 = no effect, 100 = complete control; preemergence
- Method: […] At the same time, plants selected from these crop and weed species and also blackgrass (Alopecurus myosuroides Huds.), wheat (Triticum aestivum L.) and wild oat (Avena fatua L.) were treated with postemergence applications of test chemicals formulated in the same manner. […] Treated plants and controls were maintained in a greenhouse for 13 to 15 days, after which time all species were compared to controls and visually evaluated. […]
ASSAY READOUT: Plant response rating, Velvetleaf
Answer with a bare number; do not write a unit.

Quote Plant response rating, Velvetleaf reported for CCOC(=O)c1cccc(NC(=O)c2cc(C3(C)CC3)nn2CC)c1 please.
60

Quote Plant response rating, Velvetleaf reported for C#CCNC(=O)c1cccc(NC(=O)c2sc(C(C)(C)C)nc2CC)c1 please.
30

Quote Plant response rating, Velvetleaf reported for CCNC(=O)c1cc(NC(=O)c2cc(C(C)(C)C)nn2CC)ccn1 please.
0

Quote Plant response rating, Velvetleaf reported for CCn1nc(C(C)(C)C)cc1C(=O)Nc1cc(C(=O)N(C)OC)ccc1F please.
100

Quote Plant response rating, Velvetleaf reported for CCn1nc(C2(C)CC2)cc1C(=O)Nc1cc(C(=O)N2CC=CC2)ccc1F please.
100

Quote Plant response rating, Velvetleaf reported for CCn1nc(C(C)(C)C)cc1C(=O)Nc1ccnc(C(=O)N(C)C)c1 please.
80

Quote Plant response rating, Velvetleaf reported for Cn1nc(C(C)(C)C)cc1C(=O)Nc1cccc(C(=O)NC2CC2)n1 please.
20

Quote Plant response rating, Velvetleaf reported for CCNC(=O)c1cc(NC(=O)c2cc(C(C)(C)C)nn2CC)c(F)cc1F please.
60

Quote Plant response rating, Velvetleaf reported for CCc1nn(C(C)(C)C)cc1C(=O)Nc1cccc(C(=O)N(C)C)n1 please.
70

Quote Plant response rating, Velvetleaf reported for CCOC(=O)c1ccnc(NC(=O)c2cn(C(C)(C)C)nc2CC)c1 please.
0

Quote Plant response rating, Velvetleaf reported for C=CCN(CC=C)C(=O)c1cncc(NC(=O)c2cc(C(C)(C)C)nn2CC)c1 please.
80

Quote Plant response rating, Velvetleaf reported for C#CCNC(=O)c1cncc(NC(=O)c2cc(C(C)(C)C)nn2CC)n1 please.
0

Quote Plant response rating, Velvetleaf reported for C#CCNC(=O)c1ccc(F)c(NC(=O)c2cc(C(C)(C)C)nn2CC)n1 please.
20

----------
Kindly supply the reported Cocklebur plant response rating (0 to 100 scale) values for the records listed here.
- Tested on: cocklebur
- ASSAY EXPLANATION: Test B pre-/postemergence herbicide test
- Assay type: in vivo, Xanthium strumarium
- STUDY CONDITIONS: 125 g ai/ha; 0 = no effect, 100 = complete control; preemergence
Answer with a bare number; do not write a unit.

Quote Cocklebur plant response rating (0 to 100 scale) reported for CCc1nc(C(C)(C)C)sc1C(=O)Nc1cccc(C(=O)NCCF)c1 please.
10

Quote Cocklebur plant response rating (0 to 100 scale) reported for CCc1nc(C(C)(C)C)sc1C(=O)Nc1cccc(C(=O)N(C)CC)c1 please.
0

Quote Cocklebur plant response rating (0 to 100 scale) reported for CCc1nn(C(C)(C)C)cc1C(=O)Nc1cc(C(=O)N(C)CC)ccc1F please.
20

Quote Cocklebur plant response rating (0 to 100 scale) reported for CC(=O)c1cccc(NC(=O)c2sc(C(C)(C)C)nc2C)c1 please.
0

Quote Cocklebur plant response rating (0 to 100 scale) reported for CCn1nc(C(C)(C)C)cc1C(=O)Nc1cccc(C(=O)N(C)OC)n1 please.
0

Quote Cocklebur plant response rating (0 to 100 scale) reported for CCNC(=O)c1cccc(NC(=O)c2nn(C(C)(C)C)cc2C(F)(F)F)c1 please.
0

Quote Cocklebur plant response rating (0 to 100 scale) reported for CCn1nc(C2(C)CC2)cc1C(=O)Nc1cc(C(=O)N2CC=CC2)ccc1F please.
0

Quote Cocklebur plant response rating (0 to 100 scale) reported for CCn1nc(C(C)(C)C)cc1C(=O)Nc1cc(C(=O)N(C)OC)ccc1F please.
0

Quote Cocklebur plant response rating (0 to 100 scale) reported for CCNC(=O)c1cc(NC(=O)c2cc(C(C)(C)C)nn2CC)ccn1 please.
0

Quote Cocklebur plant response rating (0 to 100 scale) reported for CCNC(=O)c1ccc(F)c(NC(=O)c2sc(C(C)(C)C)nc2CC)c1 please.
0

Quote Cocklebur plant response rating (0 to 100 scale) reported for CCNC(=O)c1ccnc(NC(=O)c2nn(C(C)(C)C)cc2CC)c1 please.
0

Quote Cocklebur plant response rating (0 to 100 scale) reported for CCOC(=O)c1cccc(NC(=O)c2cc(C3(C)CC3)nn2CC)c1 please.
0

Quote Cocklebur plant response rating (0 to 100 scale) reported for CCc1nc(C(C)(C)C)sc1C(=O)Nc1cccc(C(=O)N(CC)CC)n1 please.
0

Quote Cocklebur plant response rating (0 to 100 scale) reported for CCNC(=O)c1cncc(NC(=O)c2cc(C(C)(C)C)nn2CC)c1 please.
0

Quote Cocklebur plant response rating (0 to 100 scale) reported for CCc1nc(C(C)(C)C)sc1C(=O)Nc1cccc(C(=O)N(CC)CC)c1 please.
10
